experimentalTarget: tyrosinase from HBL human melanoma cells (Homo sapiens)
Construct: endogenous in cells
Sequence (P14679 19-529): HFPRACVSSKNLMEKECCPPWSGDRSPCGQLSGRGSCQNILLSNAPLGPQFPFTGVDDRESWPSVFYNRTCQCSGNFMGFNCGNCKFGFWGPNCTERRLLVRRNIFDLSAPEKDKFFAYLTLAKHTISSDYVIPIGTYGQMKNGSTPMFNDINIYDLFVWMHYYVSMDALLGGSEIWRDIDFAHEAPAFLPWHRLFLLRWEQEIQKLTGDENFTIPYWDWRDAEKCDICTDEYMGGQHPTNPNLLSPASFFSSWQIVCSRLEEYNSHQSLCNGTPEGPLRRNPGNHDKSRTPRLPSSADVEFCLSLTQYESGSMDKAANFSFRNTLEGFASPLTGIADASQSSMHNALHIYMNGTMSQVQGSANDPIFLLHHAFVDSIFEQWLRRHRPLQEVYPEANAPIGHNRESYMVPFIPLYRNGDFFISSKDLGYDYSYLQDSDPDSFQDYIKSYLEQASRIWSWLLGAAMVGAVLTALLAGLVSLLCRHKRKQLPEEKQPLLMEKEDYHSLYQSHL
assay: DO activity of human tyrosinase in HBL cell extracts (MBTH assay, 490 nm)
measurementSetup: DO activity, competitive model Km^app = Km (1 + [I]/Ki)
propertyName: Ki
Please give the number followed by its unit.

// recorded Ki for COC(=O)/C=C/c1ccc(O)c(O)c1SCCC(S)CCCCC(=O)O (stereo not shown) [LCAME, 2-S-lipoylcaffeic acid methyl ester] : 34.7 µM

* * *

experimentalTarget: mushroom tyrosinase
assay: Mushroom tyrosinase TH activity inhibition (dopachrome formation at 475 nm, L-tyrosine substrate)
Type: biochemical
measurementSetup: 10 min pre-incubation, L-tyrosine 1 mM, tyrosinase 20 U/mL, pH 6.8
propertyName: IC50 (µM)
Answers are plain numbers, in µM.

{"compound": "COC(=O)/C=C/c1ccc(O)c(O)c1SCCC(S)CCCCC(=O)O (centres unmarked)", "experimentalTarget": "mushroom tyrosinase", "unitAbbrev": "µM", "IC50": 0.83}

Proceeding to the next compound to report its IC50.
The reported IC50 value, mushroom tyrosinase, for COC(=O)/C=C/c1ccc(O)c(O)c1 [CAME, caffeic acid methyl ester, reference compound] reads 79

Cited source: paper PMC6121902
